In this section, each of the compounds is paired with its reported log10 of IC50.
Target: hAR (Homo sapiens, UniProt P10275)
Sequence (P10275 whole entry): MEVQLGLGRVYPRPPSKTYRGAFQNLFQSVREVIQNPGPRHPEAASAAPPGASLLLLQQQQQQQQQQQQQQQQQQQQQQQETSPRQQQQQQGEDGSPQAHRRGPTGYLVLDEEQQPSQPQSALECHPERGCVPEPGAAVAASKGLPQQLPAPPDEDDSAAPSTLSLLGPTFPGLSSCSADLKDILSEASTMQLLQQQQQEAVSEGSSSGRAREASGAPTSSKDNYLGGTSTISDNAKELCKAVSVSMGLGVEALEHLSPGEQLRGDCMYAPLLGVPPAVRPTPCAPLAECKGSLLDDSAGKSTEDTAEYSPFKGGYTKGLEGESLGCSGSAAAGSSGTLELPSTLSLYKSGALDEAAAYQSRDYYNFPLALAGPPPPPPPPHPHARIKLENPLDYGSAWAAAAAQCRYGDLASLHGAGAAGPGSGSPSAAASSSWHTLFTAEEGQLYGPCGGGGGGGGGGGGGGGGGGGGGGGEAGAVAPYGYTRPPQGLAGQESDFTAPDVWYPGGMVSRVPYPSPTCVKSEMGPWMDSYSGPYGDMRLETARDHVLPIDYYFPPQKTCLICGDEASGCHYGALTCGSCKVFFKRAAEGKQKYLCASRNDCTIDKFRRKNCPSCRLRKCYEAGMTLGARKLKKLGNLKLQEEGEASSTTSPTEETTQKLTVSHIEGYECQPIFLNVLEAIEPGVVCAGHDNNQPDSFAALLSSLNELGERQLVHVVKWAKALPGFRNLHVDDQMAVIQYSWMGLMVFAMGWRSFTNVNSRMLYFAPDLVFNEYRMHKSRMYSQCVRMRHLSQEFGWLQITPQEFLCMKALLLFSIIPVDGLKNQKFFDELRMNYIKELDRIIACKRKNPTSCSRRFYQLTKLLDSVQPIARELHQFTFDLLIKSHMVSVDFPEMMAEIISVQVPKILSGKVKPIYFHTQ
Experiment: Competitive binding of 3H-DHT to baculovirus/Sf9 generated hAR extracts
Conditions: IC50, concentration at which one half of maximum binding of 1 nM 3H-DHT to hAR is inhibited; one hour at 4° C.; mean of multiple tests
Annotation: log10 of IC50, µM basis.

CC1(C)CN(S(=O)(=O)c2ccsc2)C(=O)C1Oc1ccc(C#N)c(C(F)(F)F)c1 (centres unmarked)    -1.07
CCCN1CC(C)(C)C(Oc2ccc(C#N)c(C(F)(F)F)c2)C1=O (centres unmarked)    -0.73

QUERY: Quick one: log10 of IC50 for CC1(C)CN(Cc2cccc(O)c2)C(=O)C1Oc1ccc(C#N)c(C(F)(F)F)c1 (centres unmarked) [Example 13] ?
RESULT: -1.96

QUERY: Quick one: log10 of IC50 for CC1(C)CN(Cc2ccc(O)cc2)C(=O)C1Oc1ccc(C#N)c(C(F)(F)F)c1 (centres unmarked) [Example 8] ?
RESULT: -1.77

QUERY: Quick one: log10 of IC50 for CC1(C)CN(Cc2cccc(C#N)c2)C(=O)C1Oc1ccc(C#N)c(C(F)(F)F)c1 (centres unmarked) ?
RESULT: -1.30

QUERY: Quick one: log10 of IC50 for COc1ccc(-c2nnc(C(C)N3CC(C)(C)C(Oc4ccc(C#N)c(C(F)(F)F)c4)C3=O)o2)cc1 (centres unmarked) ?
RESULT: -1.36

QUERY: Quick one: log10 of IC50 for CC1(C)CN(Cc2noc(-c3ccccc3)n2)C(=O)C1Oc1ccc(C#N)c(C(F)(F)F)c1 (centres unmarked) ?
RESULT: -1.05

QUERY: Quick one: log10 of IC50 for COc1ccc(-c2nnc(CN3CC(C)(C)C(Oc4ccc(C#N)c(C(F)(F)F)c4)C3=O)o2)cc1 (centres unmarked) ?
RESULT: -1.10

Values from patent US7674819B2
